TEST_SUMMARY: Chemical stability assessed as half life of hydrolysis in physiological solution at pH 7.6
Assay type: physicochemical
QUANTITY: half-life
Reply with the number, then its unit.

Task: Tell me its half-life given Cc1oc(=O)oc1CN1CCN(Cc2cnc(Cl)s2)/C1=N\[N+](=O)[O-] as the entry.
Result: 10.5 h

Task: Give the measured half-life for Cc1oc(=O)oc1CN1CCN(Cc2ccc(Cl)nc2)/C1=N\[N+](=O)[O-]
Result: 11.6 h

====

TEST_SUMMARY: Chemical stability assessed as half life of hydrolysis in alkaline buffer at pH 8.3
Format: physicochemical
QUANTITY: half-life

Task: Return half-life (reported value) for this compound: Cc1oc(=O)oc1CN1CCN(Cc2cnc(Cl)s2)/C1=N\[N+](=O)[O-]
Result: 10.6 h

Task: Assign half-life to the following record: Cc1oc(=O)oc1CN1CCN(Cc2ccc(Cl)nc2)/C1=N\[N+](=O)[O-]
Result: 15.5 h
